system: KB; test: Cytotoxicity against human KB cells after 72 hrs by SRB assay; format: functional, cell-based; conditions: kb
assay.metric: IC50 (nM)
Please give a number only; it is taken to be in nM.

Exercise: # input compound: "Nc1ccccc1Nc1cc(=O)oc2c3c(ccc12)CCCC3" ; wanted: its IC50
Solution: 7400

Exercise: # get_value(readout='IC50', item= "Nc1cccc2c(Nc3cc(=O)oc4c3ccc3ccccc34)cccc12" )
Solution: 210

Exercise: Please give the measured IC50 for this compound: "CN(C)c1ccc(Nc2cc(=O)oc3c2ccc2ccccc23)cc1"
Solution: 470

---
Exercise: # input compound: "Nc1cccc(Nc2cc(=O)oc3c2ccc2ccccc23)c1" ; wanted: its IC50
Solution: 170

Exercise: # IC50 lookup, item "O=c1cc(NC2CCN(Cc3ccccc3)CC2)c2ccc3c(c2o1)CCCC3"
Solution: 9100

Exercise: Bench note: what IC50 did "Nc1ccc(Nc2cc(=O)oc3c4c(ccc23)CCCC4)cc1" show?
Solution: 69

Exercise: Please look up its IC50: "Nc1ccc(Nc2cc(=O)oc3c2ccc2ccccc23)cc1"
Solution: 48

Exercise: Fill in the blank: the reported IC50 of "Nc1cccc(Nc2cc(=O)oc3c4c(ccc23)CCCC4)c1" is ____.
Solution: 480

Exercise: Item "Nc1ccccc1Nc1cc(=O)oc2c1ccc1ccccc12" has what recorded IC50?
Solution: 8200

Exercise: Record request: IC50 value, item "CN(C)c1ccc(Nc2cc(=O)oc3c4c(ccc23)CCCC4)cc1"
Solution: 380
